Cited source: ChEMBL document CHEMBL1201862

# maps each entry to its GI50
# Test system: M14
# EXPERIMENTAL DETAILS: NCI tumour cell line growth inhibition, 48 h
Calls of active or inactive are those of the source. No stated cut-off is given here; in the data, active = GI50 up to about 1.1 µM and inactive = higher.
READOUT NAME: GI50

>>> value_observed("Fc1cccc(F)c1C1SCc2nc3ccccc3n21 (stereo unspecified)")
"> 100 µM (inactive)"
>>> value_observed("COc1ccccc1Nc1nc(NNC(=O)Cc2ccccc2)nc(NNC(=O)c2ccncc2)n1")
"> 10 µM (inactive)"
>>> value_observed("O=c1cccccc1NCCCCCCNc1cccccc1=O")
"> 100 µM (inactive)"
>>> value_observed("COC(=O)c1c(C(=O)OC)c2ccccn2c1-c1cc(OC)c(Br)c(=O)o1")
"> 100 µM (inactive)"
>>> value_observed("NNC(=O)CC(=O)Nc1ccc(S(=O)(=O)c2ccc(NC(=O)CC(=O)NN)cc2)cc1")
"> 100 µM (inactive)"
>>> value_observed("O=C(/C=C/c1ccc2c(c1)OCO2)c1ccc(O)cc1")
"18.1 µM (inactive)"
